Below is a list of entries, each paired with its recorded self-cleavage value.
B1: Hairpin Ribozyme (parent)
chain: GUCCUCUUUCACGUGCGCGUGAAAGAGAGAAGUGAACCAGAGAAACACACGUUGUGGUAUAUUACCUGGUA

# Variants of: B1
# Measurement description: self-cleavage, relative activity (ratio to wild type); higher = more cleavage; co-transcriptional

[[record]]
mutation_notation = "G27A A64G"
result = 0.303

[[record]]
mutation_notation = "U9G U70A"
result = 0.812

[[record]]
mutation_notation = "A39U G54C"
result = 0.0503

[[record]]
mutation_notation = "C12G A61C"
result = 0.24

[[record]]
mutation_notation = "G68C A71C"
result = 0.436


Query :: Which value of self-cleavage has been reported for G21U A22G in the records?
Result :: 0.736

Query :: Which value of self-cleavage has been reported for U8C G34A in the records?
Result :: 1.18

Query :: Which value of self-cleavage has been reported for U2G A61U in the records?
Result :: 0.191

Query :: Which value of self-cleavage has been reported for U20A G56C in the records?
Result :: 0.145
